- Tested on: Nude mice, LX-1 lung xenograft intrarenal, tumor weight T/C
- EXPERIMENT DESCRIPTION: NCI In Vivo Anticancer Drug Screen. Data for tumor model Human Lung LX-1 Xenograft (intrarenal inoculation) in NU/NU BALB/C (nude) mice
- ASSAY SETUP: endpoint: mean tumor weight change; dose: 1200.0 mg/kg/injection; schedule: Q04DX003 (sc); vehicle: saline with Tween-80; higher = larger tumour
Inconclusive results are not listed.
RECORDED METRIC: T/C

COc1cc(C(C)(C)C)cc(OC)c1C(O)(c1c(OC)cc(C(C)(C)C)cc1OC)c1c(OC)cc(C(C)(C)C)cc1OC : 54 % of control
CC(=O)Nc1cscc1NC(C)=O : 110 % of control
CN1C(=O)C(=Cc2ccc(O)cc2)C(=O)N(C)C1=O : 87 % of control
Nc1nc(N)c(N=O)c(Nc2ccc(Br)cc2)n1 : 229 % of control
O=C(CCCCCCC(=O)ON1C(=O)CCC1=O)ON1C(=O)CCC1=O : 89 % of control

Specify measured T/C for CC(=O)Oc1[nH]c(=O)c2cccc3c2c1CCC3 . 90 % of control

Specify measured T/C for N=c1c(C(=O)OCc2ccccc2)ncc(CCl)n1O . 91 % of control

Specify measured T/C for CC(C#N)(C#N)N=Nc1ccc(Cl)cc1Cl . 86 % of control

Specify measured T/C for O=C(c1cccnc1)c1cc(-c2ccccn2)c(=O)n2ccccc12 . 92 % of control

Specify measured T/C for N#CCCSC(=S)C1CCCC1=N (centres undefined) . 102 % of control

Specify measured T/C for CC(=Nc1ccccc1)C1=C(O)C(Cc2ccccc2)NC1=O (centres undefined) . 40 % of control

====

- Test system: Nude mice, LX-1 lung xenograft intrarenal, tumor weight T/C
- EXPERIMENT DESCRIPTION: NCI In Vivo Anticancer Drug Screen. Data for tumor model Human Lung LX-1 Xenograft (intrarenal inoculation) in NU/NU BALB/C (nude) mice
- ASSAY SETUP: endpoint: mean tumor weight change; dose: 300.0 mg/kg/injection; schedule: Q04DX003 (sc); vehicle: Klucel (hydroxypropylcellulose) (HPC); higher = larger tumour
Inconclusive results are not listed.
RECORDED METRIC: T/C

Here is how some compounds turned out for T/C.
CC1CCC(n2cnc3c(Cl)ncnc32)O1 (configuration not stated) : 81 % of control
O=C1N[C@H]2[C@H](CS[C@H]2CCCCC(=O)N(CCP(c2ccccc2)c2ccccc2)CCP(c2ccccc2)c2ccccc2)N1 : 84 % of control
C=C(C)C(=O)O[C@H]1CC2=C[C@@H](C[C@@]3(C)O[C@@H]3[C@H]3OC(=O)C(=C)[C@@H]31)OC2=O : 58 % of control
COc1ccc2ccccc2c1C1NC(=O)c2ccccc2N1 (configuration not stated) : 113 % of control

Specify measured T/C for CC1=C/C(O)CC(=O)Cc2nc(co2)C(=O)N2CCC=C2C(=O)OC(C(C)C)C(C)/C=C\C(=O)NC/C=C\1 (configuration not stated) . 102 % of control

Specify measured T/C for COC(=O)Nc1cn2cc(C(=O)c3cccs3)ccc2n1 . 94 % of control

Specify measured T/C for CC(CN1CC(=O)NC(=O)C1)N1CC(=O)NC(=O)C1 (configuration not stated) . 94 % of control

Specify measured T/C for COc1ccc2c(ccc3oc([N+](=O)[O-])cc32)c1 . 96 % of control

Specify measured T/C for O=Cc1ccc(C=O)c(Cl)c1 . 81 % of control

Specify measured T/C for Cc1ccc(S(=O)(=O)NC(=O)C2C(=O)CC3(CCCCC3)CC2=O)cc1 . 122 % of control

Specify measured T/C for CN1CCc2c(c3ccccc3c3ccccc23)C1 . 55 % of control

Specify measured T/C for CCNC(C)(C)C(SSS)c1ccco1 (configuration not stated) . 84 % of control

These data points were gathered from PubChem BioAssay AID266.
